Conditions: 333.15 K; 35000 kPa; Liquid; Vibrating tube method
Value kind: mass density (kg/m3)
Numbers only here, please. The scale is kg/m3.

As a guide, the following entries are already answered.
Given the compound Cc1ccc(C)s1 [2,5-dimethylthiophene] , write its reported mass density.
974.83

Given the compound Cc1ccsc1 [3-methylthiophene] , write its reported mass density.
1009.12

Given the compound c1ccsc1 [thiophene] , write its reported mass density.
1049.39

Next:
Given the compound Cc1cccs1 [2-methylthiophene] , write its reported mass density.
1007.82

###

Conditions: 323.15 K; 45000 kPa; Liquid; Vibrating tube method
Value kind: mass density (kg/m3)
Numbers only here, please. The scale is kg/m3.

As a guide, the following entries are already answered.
Given the compound Cc1ccsc1 [3-methylthiophene] , write its reported mass density.
1025.4

Given the compound Cc1ccc(C)s1 [2,5-dimethylthiophene] , write its reported mass density.
990.69

Given the compound Cc1cccs1 [2-methylthiophene] , write its reported mass density.
1024.41

Okay, now this compound:
Given the compound c1ccsc1 [thiophene] , write its reported mass density.
1067.38

###

Conditions: 303.15 K; 25000 kPa; Liquid; Vibrating tube method
Recorded mass density by entry
Numbers only here, please. The scale is kg/m3.

Given the compound "Cc1ccc(C)s1" , write its reported mass density.
994.52

Next:
Given the compound "Cc1cccs1" , write its reported mass density.
1029.11

Given the compound "Cc1ccsc1" , write its reported mass density.
1030.01

Given the compound "c1ccsc1" , write its reported mass density.
1073.3

###

Conditions: 333.15 K; 40000 kPa; Liquid; Vibrating tube method
Value kind: mass density (kg/m3)
Numbers only here, please. The scale is kg/m3.

Given the molecule "Cc1ccc(C)s1" , write its reported mass density.
978.55

Given the molecule "Cc1ccsc1" , write its reported mass density.
1012.87

Given the molecule "Cc1cccs1" , write its reported mass density.
1011.63

Okay, now this molecule:
Given the molecule "c1ccsc1" , write its reported mass density.
1053.43

###

Conditions: 333.15 K; 10000 kPa; Liquid; Vibrating tube method
Recorded mass density by entry
Numbers only here, please. The scale is kg/m3.

Given the compound "Cc1ccsc1" , write its reported mass density.
988.13

Given the compound "Cc1cccs1" , write its reported mass density.
986.36

Given the compound "c1ccsc1" , write its reported mass density.
1026.72

Next:
Given the compound "Cc1ccc(C)s1" , write its reported mass density.
953.92

###

Conditions: 328.15 K; 100 kPa; Liquid; Vibrating tube method
Recorded mass density by entry
Numbers only here, please. The scale is kg/m3.

Given the molecule "c1ccsc1" , write its reported mass density.
1022.43

Given the molecule "Cc1cccs1" , write its reported mass density.
982.01

Given the molecule "Cc1ccc(C)s1" , write its reported mass density.
949.46

Okay, now this molecule:
Given the molecule "Cc1ccsc1" , write its reported mass density.
983.88

###

Recorded mass density by entry
Conditions: 323.15 K; 15000 kPa; Liquid; Vibrating tube method
Numbers only here, please. The scale is kg/m3.

As a guide, the following entries are already answered.
Given the compound "Cc1cccs1" , write its reported mass density.
1001.25

Given the compound "Cc1ccc(C)s1" , write its reported mass density.
968.05

Given the compound "Cc1ccsc1" , write its reported mass density.
1002.71

Okay, now this compound:
Given the compound "c1ccsc1" , write its reported mass density.
1042.99
